pIC50 overview
system: pERK in HCT116 cells; assay: Inhibition of KRas phosphorylation of ERK (Cisbio HTRF pERK assay); conditions: Homo sapiens, HCT-116, read-out: Inhibition (HTRF IC50) of KRas-mediated Phosphorylation of ERK, HCT116
pIC50: −log10 of the molar value.
measure: pIC50

[[record]]
molecule = "CCc1c(F)ccc2cc(O)cc(-c3ncc4c(NCCN5C(=O)CNC5=O)nc(OC[C@@]56CCCN5C[C@H](F)C6)nc4c3F)c12 [Example 379]"
op = "≤"
value_reported = 4.70

[[record]]
molecule = "O=S1(=O)NCC2(CCCN(c3nc(OC[C@@]45CCCN4C[C@H](F)C5)nc4c(F)c(-c5cc(O)cc6ccc(F)c(Cl)c56)ncc34)C2)N1 (stereo partly drawn) [Example 417]"
op = "="
value_reported = 7.10

[[record]]
molecule = "CCc1c(F)ccc2cc(O)cc(-c3ncc4c(N5CCC[C@]6(C5)NC(=O)NC6=O)nc(OC[C@@]56CCCN5C[C@H](F)C6)nc4c3F)c12 [Example 307]"
op = "="
value_reported = 7.48

[[record]]
molecule = "CCc1c(F)ccc2cc(O)cc(-c3ncc4c(N5CCCn6nc(C(=O)N(C)C)cc6C5)nc(OC[C@@]56CCCN5C[C@H](F)C6)nc4c3F)c12 [Example 326]"
op = "="
value_reported = 6.56

[[record]]
molecule = "CCc1c(F)ccc2cc(O)cc(-c3ncc4c(N5CCOCC6(COC6)C5)nc(OC[C@@]56CCCN5C[C@H](F)C6)nc4c3F)c12 [Example 480]"
op = "="
value_reported = 6.95

[[record]]
molecule = "C#Cc1c(F)ccc2cc(O)cc(-c3ncc4c(N5CCCn6nc(N)cc6C5)nc(OC[C@@]56CCCN5C[C@H](F)C6)nc4c3F)c12 [Example 394]"
op = "="
value_reported = 5.77


* * *

Reported pIC50 is given for each of the following molecules.
molecular target: KRas G12R (Homo sapiens, UniProt P01116, G12R); test: biochemical;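 further: TR-FRET displacement assay of compound binding to KRas, read after one hour at room temperature, potency from a four-parameter fit of percent-of-control values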
Sequence (P01116 1-169 isoform P01116-2 G12R): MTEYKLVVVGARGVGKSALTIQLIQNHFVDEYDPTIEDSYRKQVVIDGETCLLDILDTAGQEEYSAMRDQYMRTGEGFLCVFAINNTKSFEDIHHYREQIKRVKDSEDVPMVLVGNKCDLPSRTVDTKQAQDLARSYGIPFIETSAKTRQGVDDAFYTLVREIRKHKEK
pIC50: −log10 of the molar value.
measure: pIC50

[[record]]
molecule = "CCc1c(F)ccc2cc(O)cc(-c3ncc4c(NC56CC(CO)(C5)C6)nc(OC[C@@]56CCCN5C[C@H](F)C6)nc4c3F)c12 [Example 167]"
experimental_system = "KRas G12R (Homo sapiens, UniProt P01116, G12R)"
op = "≥"
value_reported = 8.70

[[record]]
molecule = "CCc1c(F)ccc2cc(O)cc(-c3ncc4c(N5CCCn6nc(C(=O)N7CCCC7)cc6C5)nc(OC[C@@]56CCCN5C[C@H](F)C6)nc4c3F)c12 [Example 355]"
experimental_system = "KRas G12R (Homo sapiens, UniProt P01116, G12R)"
op = "≥"
value_reported = 8.70

[[record]]
molecule = "O=C1CC2(CCCN(c3nc(OC[C@@]45CCCN4C[C@H](F)C5)nc4c(F)c(-c5cc(O)cc6ccc(F)c(Br)c56)ncc34)C2)N1 (some centres unmarked) [Example 405]"
experimental_system = "KRas G12R (Homo sapiens, UniProt P01116, G12R)"
op = "≥"
value_reported = 8.70

[[record]]
molecule = "CCc1c(F)ccc2cc(O)cc(-c3ncc4c(N5C[C@H](O)C[C@@H](O)C5)nc(OC[C@@]56CCCN5C[C@H](F)C6)nc4c3F)c12 [Example 59]"
experimental_system = "KRas G12R (Homo sapiens, UniProt P01116, G12R)"
op = "≥"
value_reported = 8.70

[[record]]
molecule = "CCc1c(F)ccc2cc(O)cc(-c3ncc4c(NC[C@H]5COC[C@H]5O)nc(OC[C@@]56CCCN5C[C@H](F)C6)nc4c3F)c12 (single isomer, unassigned) [Example 492]"
experimental_system = "KRas G12R (Homo sapiens, UniProt P01116, G12R)"
op = "="
value_reported = 7.85

[[record]]
molecule = "CC1(C)CCCN(c2nc(OCC34CCCN3CCC4)nc3c(F)c(-c4cccc5cccc(F)c45)ncc23)C1 [Example 53]"
experimental_system = "KRas G12R (Homo sapiens, UniProt P01116, G12R)"
op = "="
value_reported = 4.04

[[record]]
molecule = "Fc1c(-c2cccc3cccc(F)c23)ncc2c(N3CCCC4(CSC4)C3)nc(OCC34CCCN3CCC4)nc12 [Example 262]"
experimental_system = "KRas G12R (Homo sapiens, UniProt P01116, G12R)"
op = "="
value_reported = 5.78

[[record]]
molecule = "C#Cc1c(F)ccc2cc(O)cc(-c3ncc4c(N5CCCC6(CNC(=O)C6)C5)nc(OC[C@@]56CCCN5C[C@H](F)C6)nc4c3F)c12 (some centres unmarked) [Example 24]"
experimental_system = "KRas G12R (Homo sapiens, UniProt P01116, G12R)"
op = "≥"
value_reported = 8.70

[[record]]
molecule = "Cn1ncc2ccc(Nc3nc(OCC45CCCN4CCC5)nc4c(F)c(-c5cccc6cccc(F)c56)ncc34)cc21 [Example 99]"
experimental_system = "KRas G12R (Homo sapiens, UniProt P01116, G12R)"
op = "="
value_reported = 4.78

[[record]]
molecule = "Fc1c(-c2cccc3cccc(F)c23)ncc2c(N3CC(n4cncn4)C3)nc(OCC34CCCN3CCC4)nc12 [Example 253]"
experimental_system = "KRas G12R (Homo sapiens, UniProt P01116, G12R)"
op = "="
value_reported = 5.39

[[record]]
molecule = "Nc1cc2n(n1)CCCN(c1nc(OCC34CCCN3CCC4)nc3c(F)c(-c4cccc5cccc(F)c45)ncc13)C2 [Example 78]"
experimental_system = "KRas G12R (Homo sapiens, UniProt P01116, G12R)"
op = "="
value_reported = 5.75

[[record]]
molecule = "O=C1CC2(CCCCN(c3nc(OCC45CCCN4CCC5)nc4c(F)c(-c5cccc6cccc(F)c56)ncc34)C2)N1 (centres unmarked) [Example 266]"
experimental_system = "KRas G12R (Homo sapiens, UniProt P01116, G12R)"
op = "="
value_reported = 4.86

[[record]]
molecule = "Cc1cc2[nH]ncc2c(-c2ncc3c(N4CCC[C@@](C)(O)C4)nc(OCC4(CN(C)C)CC4)nc3c2F)c1C [Example 520]"
experimental_system = "KRas G12R (Homo sapiens, UniProt P01116, G12R)"
op = "="
value_reported = 5.76

[[record]]
molecule = "CCc1c(F)ccc2cc(O)cc(-c3ncc4c(N5CCC[C@@](C)(O)C5)nc(OCC5(CN6CCN(C)CC6)CC5)nc4c3F)c12 [Example 336]"
experimental_system = "KRas G12R (Homo sapiens, UniProt P01116, G12R)"
op = "≥"
value_reported = 8.70

[[record]]
molecule = "CCc1c(F)ccc2cc(O)cc(-c3ncc4c(N5CC6C(=O)NC(=O)C6(C)C5)nc(OC[C@@]56CCCN5C[C@H](F)C6)nc4c3F)c12 (some centres unmarked) [Example 482]"
experimental_system = "KRas G12R (Homo sapiens, UniProt P01116, G12R)"
op = "="
value_reported = 8.52

[[record]]
molecule = "CCc1c(F)ccc2cc(O)cc(-c3ncc4c(NCCCc5cccnc5)nc(OC[C@@]56CCCN5C[C@H](F)C6)nc4c3F)c12 [Example 198]"
experimental_system = "KRas G12R (Homo sapiens, UniProt P01116, G12R)"
op = "="
value_reported = 8.10

[[record]]
molecule = "C[C@@]1(O)CCCN(c2nc(OC[C@@]34CCCN3C[C@H](F)C4)nc3c(F)c(-c4c5ccccc5cc5[nH]ncc45)ncc23)C1 [Example 154]"
experimental_system = "KRas G12R (Homo sapiens, UniProt P01116, G12R)"
op = "="
value_reported = 7.18

[[record]]
molecule = "CC1(O)CCCN(c2nc(OCC34CCCN3CCC4)nc3c(F)c(-c4cccc5ccccc45)ncc23)C1 (centres unmarked) [Example 69]"
experimental_system = "KRas G12R (Homo sapiens, UniProt P01116, G12R)"
op = "="
value_reported = 5.38

[[record]]
molecule = "CCc1c(F)ccc2cc(O)cc(-c3ncc4c(NCc5ncc6cc[nH]c6n5)nc(OC[C@@]56CCCN5C[C@H](F)C6)nc4c3F)c12 [Example 142]"
experimental_system = "KRas G12R (Homo sapiens, UniProt P01116, G12R)"
op = "≥"
value_reported = 8.70

[[record]]
molecule = "O=C1NC(=O)[C@]2(CCCN(c3nc(OC[C@@]45CCCN4C[C@H](F)C5)nc4c(F)c(-c5cc(O)cc6ccc(F)c(Cl)c56)ncc34)C2)N1 [Example 413]"
experimental_system = "KRas G12R (Homo sapiens, UniProt P01116, G12R)"
op = "="
value_reported = 8.52

